system: Escherichia coli TOP10; assay: shrunken log2 fold change of peptide-encoding DNA abundance (4.5 h post-induction vs induction); higher = less antimicrobial activity (less host growth inhibition); details: time post-induction: 4.5 h; library: site-saturation at positions 5, 18, 19, 20;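 further: peptides expressed intracellularly from a pBAD plasmid library in pooled LB shake-flask culture, induced with 0.3% L-arabinose, DNA abundance read by NGS, three biological replicates, DESeq2 with apeglm shrinkage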
Entry class follows shrunken log2 fold change: low bracket (below -0.1), middle bracket (-0.1 to below 0.07), high bracket (0.07 or more)

Band for the recorded shrunken log2 fold change of RRIRIRPPRLPRPRPRPREYPRP ?
low bracket

Band for the recorded shrunken log2 fold change of RRIRTRPPRLPRPRPRPFFTPRP ?
low bracket

Band for the recorded shrunken log2 fold change of RRIRSRPPRLPRPRPRPQACPRP ?
high bracket

Band for the recorded shrunken log2 fold change of RRIRCRPPRLPRPRPRPYIWPRP ?
middle bracket

Band for the recorded shrunken log2 fold change of RRIRDRPPRLPRPRPRPGIRPRP ?
low bracket

Band for the recorded shrunken log2 fold change of RRIRFRPPRLPRPRPRPCGYPRP ?
middle bracket

Band for the recorded shrunken log2 fold change of RRIRLRPPRLPRPRPRPIRLPRP ?
low bracket

Band for the recorded shrunken log2 fold change of RRIRWRPPRLPRPRPRPLGWPRP ?
high bracket

Band for the recorded shrunken log2 fold change of RRIRQRPPRLPRPRPRPEQNPRP ?
middle bracket

Band for the recorded shrunken log2 fold change of RRIRKRPPRLPRPRPRPCGKPRP ?
middle bracket

Band for the recorded shrunken log2 fold change of RRIRQRPPRLPRPRPRPHFGPRP ?
middle bracket

Band for the recorded shrunken log2 fold change of RRIRDRPPRLPRPRPRPVPVPRP ?
low bracket

Band for the recorded shrunken log2 fold change of RRIRKRPPRLPRPRPRPCPNPRP ?
middle bracket

Band for the recorded shrunken log2 fold change of RRIRHRPPRLPRPRPRPRYHPRP ?
low bracket

Band for the recorded shrunken log2 fold change of RRIRGRPPRLPRPRPRPKTIPRP ?
high bracket

Band for the recorded shrunken log2 fold change of RRIRIRPPRLPRPRPRPYPIPRP ?
low bracket

Band for the recorded shrunken log2 fold change of RRIRCRPPRLPRPRPRPDVPPRP ?
middle bracket

Band for the recorded shrunken log2 fold change of RRIRGRPPRLPRPRPRPNKHPRP ?
high bracket

Band for the recorded shrunken log2 fold change of RRIRLRPPRLPRPRPRPWTEPRP ?
middle bracket

Band for the recorded shrunken log2 fold change of RRIRVRPPRLPRPRPRPCVLPRP ?
low bracket

Band for the recorded shrunken log2 fold change of RRIRERPPRLPRPRPRPFRDPRP ?
middle bracket

Band for the recorded shrunken log2 fold change of RRIRDRPPRLPRPRPRPSYDPRP ?
low bracket

Band for the recorded shrunken log2 fold change of RRIRLRPPRLPRPRPRPSCWPRP ?
middle bracket

Band for the recorded shrunken log2 fold change of RRIRKRPPRLPRPRPRPAGCPRP ?
high bracket

Band for the recorded shrunken log2 fold change of RRIRVRPPRLPRPRPRPRVMPRP ?
high bracket

Band for the recorded shrunken log2 fold change of RRIRWRPPRLPRPRPRPETAPRP ?
high bracket

Band for the recorded shrunken log2 fold change of RRIRARPPRLPRPRPRPDMHPRP ?
middle bracket

Band for the recorded shrunken log2 fold change of RRIRMRPPRLPRPRPRPTSWPRP ?
high bracket

Band for the recorded shrunken log2 fold change of RRIRNRPPRLPRPRPRPHFDPRP ?
low bracket

Band for the recorded shrunken log2 fold change of RRIRQRPPRLPRPRPRPPLTPRP ?
middle bracket

Band for the recorded shrunken log2 fold change of RRIRYRPPRLPRPRPRPMINPRP ?
low bracket

Band for the recorded shrunken log2 fold change of RRIRQRPPRLPRPRPRPPQGPRP ?
high bracket

Origin of the recorded values: the supplement of paper PMC9112550
